# TARGET_OF_ASSAY: X-box-binding protein 1 (Rattus norvegicus)
# TEST_METHOD_NOTES: Activation of XBP1 in rat IEC-6 cells assessed as transcriptional activity measured after 48 hrs by dual luciferase reporter gene assay
# Format: cell-based
# ASSAY_CONDITIONS: read-out: EC50
EXPERIMENTAL_ENDPOINT: pEC50
Worth noting: pEC50 values are minus log10 of concentrations stated in mol/L.

Examples with their reported pEC50 follow.
INSERT INTO measurements (smiles_code, experimental_result) VALUES
  ('CCCCCC(=O)/N=c1\c2c3c(ccc2cc2n1CCc1cc4c(cc1-2)OCO4)OCO3', 7.15),
  ('COc1ccc(/N=c2/c3c4c(ccc3cc3n2CCc2cc5c(cc2-3)OCO5)OCO4)cc1', 6.74);

Kindly review the next molecule as well.
Req: Suppose we examine the molecule Cc1ccc(/N=c2/c3c4c(ccc3cc3n2CCc2cc5c(cc2-3)OCO5)OCO4)cc1 ; what pEC50 value has been reported?
Resp: 7.88

* * *

# TARGET_OF_ASSAY: X-box-binding protein 1 (Rattus norvegicus, UniProt Q9R1S4)
# Sequence (Q9R1S4 whole entry): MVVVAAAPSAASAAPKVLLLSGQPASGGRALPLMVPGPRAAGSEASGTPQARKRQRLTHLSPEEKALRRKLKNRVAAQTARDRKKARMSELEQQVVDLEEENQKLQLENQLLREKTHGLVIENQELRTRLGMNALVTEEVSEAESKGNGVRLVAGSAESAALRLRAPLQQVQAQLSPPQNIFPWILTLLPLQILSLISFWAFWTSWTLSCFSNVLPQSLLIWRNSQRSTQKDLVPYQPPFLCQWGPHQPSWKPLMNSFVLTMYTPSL
# TEST_METHOD_NOTES: Activation of XBP1 in rat IEC-6 cells assessed as transcriptional activity measured after 48 hrs by dual luciferase reporter gene assay
# Assay type: cell-based
# ASSAY_CONDITIONS: read-out: EC50
EXPERIMENTAL_ENDPOINT: pEC50
Worth noting: pEC50 values are minus log10 of concentrations stated in mol/L.

INSERT INTO measurements (smiles_code, experimental_result) VALUES
  ('CCC(=O)/N=c1\c2c3c(ccc2cc2n1CCc1cc4c(cc1-2)OCO4)OCO3', 6.54);

Req: Suppose we examine the molecule CC(=O)/N=c1\c2c3c(ccc2cc2n1CCc1cc4c(cc1-2)OCO4)OCO3 ; what pEC50 value has been reported?
Resp: 6.55

Req: Suppose we examine the molecule O=c1c2c3c(ccc2cc2n1CCc1cc4c(cc1-2)OCO4)OCO3 ; what pEC50 value has been reported?
Resp: 7.10

Req: Suppose we examine the molecule CCCCC(=O)/N=c1\c2c3c(ccc2cc2n1CCc1cc4c(cc1-2)OCO4)OCO3 ; what pEC50 value has been reported?
Resp: 7.49

Req: Suppose we examine the molecule Fc1ccc(/N=c2/c3c4c(ccc3cc3n2CCc2cc5c(cc2-3)OCO5)OCO4)cc1 ; what pEC50 value has been reported?
Resp: 6.46

Req: Suppose we examine the molecule Brc1ccc(/N=c2/c3c4c(ccc3cc3n2CCc2cc5c(cc2-3)OCO5)OCO4)cc1 ; what pEC50 value has been reported?
Resp: 7.31

Req: Suppose we examine the molecule c1ccc(/N=c2/c3c4c(ccc3cc3n2CCc2cc5c(cc2-3)OCO5)OCO4)cc1 ; what pEC50 value has been reported?
Resp: 6.95

Req: Suppose we examine the molecule Clc1ccc(/N=c2/c3c4c(ccc3cc3n2CCc2cc5c(cc2-3)OCO5)OCO4)cc1 ; what pEC50 value has been reported?
Resp: 6.76

Req: Suppose we examine the molecule CCCC(=O)/N=c1\c2c3c(ccc2cc2n1CCc1cc4c(cc1-2)OCO4)OCO3 ; what pEC50 value has been reported?
Resp: 6.92
